B1: Azoarcus group I ribozyme (parent)
chain: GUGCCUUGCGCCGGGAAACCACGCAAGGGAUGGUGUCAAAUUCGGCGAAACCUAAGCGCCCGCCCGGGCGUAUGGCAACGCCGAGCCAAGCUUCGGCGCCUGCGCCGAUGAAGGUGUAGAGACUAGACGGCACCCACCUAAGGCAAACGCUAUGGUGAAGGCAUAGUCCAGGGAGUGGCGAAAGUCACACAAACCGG

Variants of: B1
assayProtocol: reverse-splicing fitness (ratio to wild type); higher = more active; in vitro selection; Mg2+ level not given
propertyLabel: reverse-splicing fitness
Answers are plain numbers.

Observe how each entry below is paired with its result.
C82G A111G A120U A145U C150A C169A = 0.00193
A111U A145U C150G C169A U176A = 0.0103
C82U A111C A120G C150U C169U U176A = 0.017

// input: 5 variants below; output: reverse-splicing fitness for each
1. C82G A120G A145C C169A
2. C82U A111C A120G C150A C169U U176C
3. C82U A145U C150A U176A
4. C82U A111G A120G A145U C150U U176A
5. C82A A111U A120U C150A

1: 0.0237; 2: 0.0146; 3: 0.055; 4: 0.00942; 5: 0.00876

For every listed record, write down its reverse-splicing fitness.
1. A111C A120U A145G C150U C169A
2. C82A A111G C150A U176A
3. A111U A145G C150A C169G U176A
4. A111G A120U A145U C169U U176G
5. C82U A145C C150A C169U U176C
6. C82G A111G A145C C150A C169G U176A
7. C82G A111U A120G A145U C169G U176A

1. 0.00795
2. 0.0284
3. 0.0163
4. 0.00399
5. 0.00693
6. 0.0228
7. 0.0119

Dear reader, for each entry below, please note its reverse-splicing fitness.
1. C82G A111C A120U A145G U176C
2. C82A A111U A120C C150U C169U U176G
3. C82U A120C C169U U176G
4. C82A A111C A120C A145U C150U U176A
5. C82A A111G A120G C150G C169G U176C
6. C82G A111C A120G A145G C150A C169G
7. C82A A111U A120G A145C C150G U176C

1. 0.0203
2. 0.00737
3. 0.00414
4. 0.0128
5. 0.00515
6. 0.00949
7. 0.00759
